target-or-system: FAD-linked sulfhydryl oxidase ALR (Homo sapiens)
Sequence (P55789 whole entry): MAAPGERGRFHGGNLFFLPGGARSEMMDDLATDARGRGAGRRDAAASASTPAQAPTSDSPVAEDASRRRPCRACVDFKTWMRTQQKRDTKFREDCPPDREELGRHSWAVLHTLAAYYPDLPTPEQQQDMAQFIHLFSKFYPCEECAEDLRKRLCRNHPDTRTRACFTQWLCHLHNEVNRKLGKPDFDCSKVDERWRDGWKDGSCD
test-method-notes: ALR-catalysed DTT oxidation blockers – biochemical, H2O2 detection, luminescence, cherry-pick, dose response (AID 493248)
The source made the active and inactive calls. Rule as the data show it: actives have a measured AC50 and inactives only a lower limit.
Reported values of AC50 for individual entries

In: Query: AC50; subject: C/C(=C\c1ccc(N)cc1)c1nc2ccccc2[nH]1
Out: 321 nM (active)

---
In: Query: AC50; subject: C/C(=N\Nc1nc2ccccc2[nH]1)c1ccc2c(c1)OCO2
Out: 116 nM (active)

In: Query: AC50; subject: CCSc1nnc(NC(=O)c2cccc(S(=O)(=O)N(C)c3ccccc3)c2)s1
Out: 2750 nM (active)

In: Query: AC50; subject: CN(C)c1ccc(NC(=O)CN2CCc3ccccc3C2)cc1
Out: 2230 nM (active)

In: Query: AC50; subject: CC(=O)N1CC[n+]2c(-c3ccc(Cl)cc3)csc21
Out: 1880 nM (active)

In: Query: AC50; subject: CC(NS(C)(=O)=O)C(c1cccs1)N1CCN(c2ccccc2)CC1 (stereo not drawn)
Out: 2930 nM (active)
